Molecular target: UniProt F9Y7W8
Sequence (F9Y7W8 1-429): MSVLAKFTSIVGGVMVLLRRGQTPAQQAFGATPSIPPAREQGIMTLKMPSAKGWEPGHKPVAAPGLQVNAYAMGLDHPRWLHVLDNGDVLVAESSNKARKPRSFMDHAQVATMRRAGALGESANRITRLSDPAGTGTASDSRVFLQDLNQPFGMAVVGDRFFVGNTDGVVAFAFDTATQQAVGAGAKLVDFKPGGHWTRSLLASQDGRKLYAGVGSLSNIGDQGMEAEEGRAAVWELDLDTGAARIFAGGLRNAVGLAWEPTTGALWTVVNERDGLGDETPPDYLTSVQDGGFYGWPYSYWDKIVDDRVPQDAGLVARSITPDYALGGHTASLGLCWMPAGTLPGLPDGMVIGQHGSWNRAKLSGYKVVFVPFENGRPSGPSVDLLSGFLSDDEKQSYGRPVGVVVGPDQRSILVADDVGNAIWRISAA
Assay: Effects of metal ions, enzyme inhibitors and PQQ on the activity of ADH
Type: biochemical, Gluconobacter oxydans DSM 4025 (FERM BP-3812)
Details: metal 0.0387 mM; None = 100
Listed here: items and their measured Relative activity (%).
Just the number in %, nothing appended.

Sample answers from the record:
Given O.O=S(=O)([O-])[O-].O=S(=O)([O-])[O-].O=S(=O)([O-])[O-].[Fe+3].[Fe+3] [Fe2 (SO4)3.nH2 O] , state its recorded Relative activity (%).
100

Given O.O.O.O.O.O.[Cl][Cu][Cl] [CuCl2.6H2 O] , state its recorded Relative activity (%).
100

Given [Ca+2].[Cl-].[Cl-] [CaCl2] , state its recorded Relative activity (%).
337

Next compound, please.
Given O.O.O.O.O=[N+]([O-])[O-].O=[N+]([O-])[O-].[Ca+2] [Ca(NO3)2.4H2 O] , state its recorded Relative activity (%).
294
